Recorded Reversal ability values (NIH3T3) are given below.
quantityMeasured: Reversal ability

* CC(=O)O[C@@H]1[C@H]2[C@H](O)[C@H](OC(=O)c3ccccc3)[C@]3(C)[C@@H](OC(=O)c4ccccc4)[C@@H](OC(=O)c4ccccc4)C[C@](C)(O)[C@@]13OC2(C)C | 15.86
* CC(=O)OC[C@]12[C@@H](OC(=O)c3ccccc3)[C@@H](OC(=O)c3ccccc3)[C@@H]3[C@@H](OC(C)=O)[C@]1(OC3(C)C)[C@@](C)(O)C[C@H](OC(C)=O)[C@@H]2OC(C)=O | 11.13
* COc1ccc(CCN(C)CCCC(C#N)(c2ccc(OC)c(OC)c2)C(C)C)cc1OC (stereo not drawn) | 10.2
